experiment: Human pregnane X receptor (PXR) small molecule agonists, qHTS cell viability counter screen (AID 1346977); conditions: PXR-Luc HepG2 viability, CellTiter-Fluor, 24 h; series mostly up to 92.4 µM; also: % is scaled to controls: 0 for no effect and ±100 for the full control effect; nearly all actives have a fitted effect of over 50% in size
Results filed as inconclusive are left out. Activity calls are given as the source filed them. Calls follow the shape of the dose curve; as a rule, active = well fitted cell-killing curve with a large enough effect in the repeat runs; inconclusive = weak or mixed curves, or effect the other way; inactive = flat fitted curve, though single readings scatter.
Mark one answer only. Choices: active, inactive

Please review the entries below; each comes with its answer.
COc1ccc(C(=O)N2CCCC2=O)cc1    inactive
COc1cc(OC)nc(NC(=O)NS(=O)(=O)c2ncccc2OCC(F)(F)F)n1    inactive
Fc1cc(Br)ccc1CBr    inactive
CNC(=O)Oc1c(C(C)(C)C)cc(C)cc1C(C)(C)C    inactive

Record request — test call for "Oc1c(Cl)cccc1Cl"
inactive

Quick one: "CC1(C)C(=O)NC(=O)NC1=O"
inactive

Quick one: COc1ccc2c(c1OC)CN1CCc3cc4c(cc3C1C2)OCO4 (configuration not stated)
inactive

---

assay: qHTS assay to test for compound auto fluorescence at 590 nm (red) in HepG2 cells (AID 720674); details: HepG2 autofluorescence, red 540/590 nm, 1 h; series mostly up to 91.3 µM; also: % is scaled to controls: 0 for no effect and ±100 for the full control effect
Activity calls are given as the source filed them. Calls come from the whole dose curve; as a rule, active = well fitted curve in the direction sought with a large enough effect in the repeat runs; inconclusive = weak or mixed curves; inactive = flat fitted curve, though single readings scatter.
Quantity Kind: fluorescence, relative to Rose Bengal

See these solved cases before continuing.
NC(=O)c1cc([N+](=O)[O-])cc([N+](=O)[O-])c1    inactive
CC(=O)[C@H]1CC[C@H]2[C@@H]3CC[C@H]4C[C@H](O)CC[C@]4(C)[C@H]3C(=O)C[C@]12C    inactive
CCN(CC)C(=O)[C@@H]1C=C2c3cccc4[nH]cc(c34)C[C@H]2N(C)C1    inactive
CCCCN(CCCCO)N=O    inactive
O=C(O)c1ccc2[nH]cc(CCCCN3CC=C(c4ccccc4)CC3)c2c1    inactive

Which fluorescence, relative to Rose Bengal value belongs to "NC(=S)C(N)=S" ?
inactive

Quick one: "CCCCOC(=O)[C@@H](C)Oc1ccc(Oc2ccc(C#N)cc2F)cc1"
inactive

Quick one: "O=[N+]([O-])c1cccc2cccnc12"
inactive

Quick one: "CSc1ccc(C(=O)C(C)(C)N2CCOCC2)cc1"
inactive

Quick one: "COc1cc(OC)nc(NC(=O)NS(=O)(=O)c2ncccc2C(=O)N(C)C)n1"
inactive

---

assay: A CellTox Green Cytotoxicity Assay to monitor cytotoxicity in HEK293 cells - 16 hour (AID 1224888); conditions: CellTox Green fluorescence; series mostly up to 76.8 µM; also: nearly all actives have a fitted effect of over 35% in size
Results filed as inconclusive are left out. The source made the active and inactive calls. The call rests on the fitted dose curve; in most records, active means well fitted activation curve with a large enough effect in the repeat runs; inconclusive means weak or mixed curves; inactive means flat fitted curve, though single readings scatter.
Mark one answer only. Choices: 1 (active), 0 (inactive)

Please review the entries below; each comes with its answer.
C=CC1CC=CCC1 (stereo not drawn)    0
CN1CCN(C(=O)O[C@H]2c3nccnc3C(=O)N2c2ccc(Cl)cn2)CC1    0
OC(c1ccccc1)(c1ccccc1)C1CCNCC1    0
CCC1(c2ccccc2)C(=O)NC(=O)NC1=O    0
C[N+](=O)[O-]    0

Record request — test call for "c1cc[c]([Hg][c]2ccccc2)cc1"
0

Quick one: Cc1coc2c1CCC(C)C2 (stereo not drawn)
0

Quick one: "Clc1cccc(N2CCNCC2)c1"
0

Quick one: CC(C)CC(N(C)C)C1(c2ccc(Cl)cc2)CCC1 (stereo not drawn)
1

Quick one: "c1ccc(N2CCNCC2)cc1"
0

Quick one: "COc1cc(OC)nc(NC(=O)NS(=O)(=O)c2ncccc2C(=O)N(C)C)n1"
0

Quick one: "COc1cc2c(cc1OC)[C@@]13CCN4CC5=CCO[C@H]6CC(=O)N2[C@H]1[C@H]6[C@H]5C[C@H]43"
0

Quick one: "Cc1ncsc1CCCl"
0

---

target: Estrogen receptor (Homo sapiens) (UniProt P03372); test: qHTS assay to identify small molecule agonists of the estrogen receptor alpha (ER-alpha) signaling pathway using the BG1 cell line (AID 743079); conditions: BG1Luc4E2 cells, ERE-luciferase agonist, 22 h; at 70.3 µM (top of the series); also: % is scaled to controls: 0 for no effect and ±100 for the full control effect; nearly all actives have a fitted effect of over 20% in size
Sequence (P03372 whole entry, looked up): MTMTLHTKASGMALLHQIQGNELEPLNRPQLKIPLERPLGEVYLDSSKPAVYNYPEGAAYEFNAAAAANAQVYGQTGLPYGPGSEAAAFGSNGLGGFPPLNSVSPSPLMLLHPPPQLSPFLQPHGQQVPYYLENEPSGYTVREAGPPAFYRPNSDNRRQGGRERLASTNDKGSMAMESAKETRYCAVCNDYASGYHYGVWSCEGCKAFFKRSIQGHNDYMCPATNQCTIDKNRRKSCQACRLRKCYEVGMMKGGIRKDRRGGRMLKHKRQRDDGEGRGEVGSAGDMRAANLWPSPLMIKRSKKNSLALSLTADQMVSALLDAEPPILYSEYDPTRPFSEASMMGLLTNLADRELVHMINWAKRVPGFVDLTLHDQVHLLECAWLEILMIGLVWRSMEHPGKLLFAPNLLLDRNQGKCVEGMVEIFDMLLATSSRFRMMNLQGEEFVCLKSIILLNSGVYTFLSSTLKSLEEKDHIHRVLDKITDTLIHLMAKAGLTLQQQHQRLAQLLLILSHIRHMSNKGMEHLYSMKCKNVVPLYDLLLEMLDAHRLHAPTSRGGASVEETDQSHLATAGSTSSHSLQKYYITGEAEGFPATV
Records with an inconclusive call do not appear.
Quantity Kind: activation (%)
Give just the numeric value; % need not be written.

See these solved cases before continuing.
O=C(Nc1ccccc1)c1ccccc1I    0.753
CCCCc1c(C)nc(NCC)[nH]c1=O    0.176
O=C(O)c1ccc2[nH]cc(CCCCN3CC=C(c4ccccc4)CC3)c2c1    -2.02
COc1cc(OC)nc(NC(=O)NS(=O)(=O)c2ncccc2C(=O)N(C)C)n1    9.83
CCC1(c2ccccc2)C(=O)N=C(O)NC1=O (configuration not stated)    -3.61

Which activation value belongs to "BrCCCCCCBr" ?
-3.68

Quick one: "CCCCP(CCCC)CCCC"
0.877

---

target: Acetylcholinesterase (Homo sapiens) (UniProt P22303); assay: Acetylcholinesterase (AChE) small molecule antagonists: enzyme-based qHTS assay (AID 1347397); conditions: AChE enzyme activity inhibition; series mostly up to 115 µM; also: % is scaled to controls: 0 for no effect and ±100 for the full control effect; nearly all actives have a fitted effect of over 55% in size
Sequence (P22303 whole entry, looked up): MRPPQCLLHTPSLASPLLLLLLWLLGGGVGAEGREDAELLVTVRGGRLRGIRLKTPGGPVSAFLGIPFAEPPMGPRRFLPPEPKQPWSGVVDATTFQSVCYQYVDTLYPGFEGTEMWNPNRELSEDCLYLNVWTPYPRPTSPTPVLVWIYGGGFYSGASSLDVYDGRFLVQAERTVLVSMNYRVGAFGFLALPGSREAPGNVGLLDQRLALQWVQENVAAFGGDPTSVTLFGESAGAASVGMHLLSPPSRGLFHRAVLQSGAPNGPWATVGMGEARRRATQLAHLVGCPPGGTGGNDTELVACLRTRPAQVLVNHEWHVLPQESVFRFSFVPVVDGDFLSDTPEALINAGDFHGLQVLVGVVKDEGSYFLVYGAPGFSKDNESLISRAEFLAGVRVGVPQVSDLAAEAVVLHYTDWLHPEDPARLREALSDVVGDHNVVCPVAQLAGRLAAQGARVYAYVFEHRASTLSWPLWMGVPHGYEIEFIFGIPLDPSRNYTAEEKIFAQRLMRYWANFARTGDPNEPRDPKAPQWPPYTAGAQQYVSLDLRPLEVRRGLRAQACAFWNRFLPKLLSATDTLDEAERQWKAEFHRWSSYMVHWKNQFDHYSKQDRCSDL
Calls of active or inactive are those of the source. Calls come from the whole dose curve.
Quantity Kind: outcome

See these solved cases before continuing.
CN(N=O)C(N)=O    inactive
Nc1cc2c3c(c1)C(c1ccccc1)=N[C@@H](NC(=O)c1cccnc1)C(=O)N3CC2    inactive
Nc1ccccc1Cl    inactive
CC(C1CC1)C(O)(Cn1cncn1)c1ccc(Cl)cc1 (stereo not drawn)    inactive
O=C1OC(=O)C2C1C1(Cl)C(Cl)=C(Cl)C2(Cl)C1(Cl)Cl (stereo not drawn)    inactive

Which outcome value belongs to CCN(CC)C(C)C(=O)c1ccccc1 (stereo not drawn) ?
inactive

Quick one: "N#Cc1ccncc1"
inactive

Quick one: "O=C(N[C@H]1CN2CCC1CC2)c1cc2ccoc2cn1"
inactive

Quick one: "CCCSC(=O)Cl"
inactive

---

Test: qHTS assay to identify small molecule antagonists of the peroxisome proliferator-activated receptor delta (PPARd) signaling pathway - cell viability counter screen (AID 743213); also: % is scaled to controls: 0 for no effect and ±100 for the full control effect; nearly all actives have a fitted effect of over 50% in size
Settings: PPARd-bla HEK293H viability, CellTiter-Glo luminescence, 17 h; series mostly up to 62 µM
Excerpt: U.S. Tox21 Program National Center for Advancing Translational Sciences [NCATS] NIH Chemical Genomics Center [NCGC] U.S. Environmental Protection Agency [EPA] National Institutes of Environmental Health Sciences [NIEHS] National Toxicology Program [NTP] U.S. Food and Drug Administration [FDA] […]
Records with an inconclusive call do not appear. Active and inactive are the calls of the source. Calls come from the whole dose curve; as a rule, active = well fitted cell-killing curve with a large enough effect in the repeat runs; inconclusive = weak or mixed curves; inactive = no such curve, though single readings can be large or run the other way.
Quantity Kind: outcome

See these solved cases before continuing.
c1cc2c(c(N3CCNCC3)c1)OCCO2    inactive
O=C(O)c1cccc(Cl)c1    inactive
CN1C[C@@H](NS(=O)(=O)N(C)C)C[C@@H]2c3cccc4c3c(cn4C)C[C@H]21    inactive
CC(=O)Nc1cc([As](=O)(O)O)ccc1O    inactive

Which outcome value belongs to "CCC(=O)C(CCN(C)C)(c1ccccc1)c1ccccc1" ?
inactive

Quick one: "Nc1n[nH]c(N)n1"
inactive

Quick one: "CCCCOC(=O)c1ccccc1C(=O)O"
inactive

Quick one: "CC(C)[N+](=O)[O-]"
inactive

Quick one: "COc1ccc(C(=O)N2CCCC2=O)cc1"
inactive

Quick one: "CCCCCCI"
inactive

Quick one: "CCOP(=S)(OCC)SCSc1ccc(Cl)cc1"
inactive

Quick one: C(CCOCC1CO1)COCC1CO1 (stereo not given)
inactive

---

experiment: qHTS RealTime-Glo MT Cell Viability Assay in HEK293 cells - 24 hour (AID 1224886); conditions: RealTime-Glo luminescence; series mostly up to 76.8 µM; also: nearly all actives have a fitted effect of over 50% in size
Results filed as inconclusive are left out. Calls of active or inactive are those of the source. Calls come from the whole dose curve; as a rule, active = well fitted cell-killing curve with a large enough effect in the repeat runs; inconclusive = weak or mixed curves, or effect the other way; inactive = flat fitted curve, though single readings scatter.
Mark one answer only. Choices: true (active), false (inactive)

Please review the entries below; each comes with its answer.
O=C(CCN1CC1)OCC(CO)(COC(=O)CCN1CC1)COC(=O)CCN1CC1    false
CC(=O)Nc1cc([As](=O)(O)O)ccc1O    false
CS(=O)(=O)c1cc(C(F)(F)F)ccc1C(=O)c1cnoc1C1CC1    false
CCCCOC(=O)c1ccccc1C(=O)O    false
CC(C)[N+](=O)[O-]    false
O=C(Oc1ccc(Br)cc1)N1CCN2CCC1CC2    false
CCC(C)n1c(=O)[nH]c(C)c(Br)c1=O (configuration not stated)    false
CCS(=O)(=O)CCSP(=O)(OC)OC    false
COc1cccc2c1cc([N+](=O)[O-])c1c(C(=O)O)cc3c(c12)OCO3    true
CCc1cc2c(s1)-n1c(C)nnc1CN=C2c1ccccc1Cl    false

Record request — test call for "CCOC(=O)C(c1c(O)c2ccccc2oc1=O)c1c(O)c2ccccc2oc1=O"
false

Quick one: "COc1cc(OC)nc(NC(=O)NS(=O)(=O)c2ncccc2C(=O)N(C)C)n1"
false

---

Test: qHTS assay to identify small molecule antagonists of the progesterone receptor (PR) signaling pathway - cell viability counter screen (AID 1346798); also: nearly all actives have a fitted effect of over 50% in size
Settings: PR-UAS-bla HEK293T viability, CellTiter-Glo luminescence, 16 h; series mostly up to 92.4 µM
Excerpt: National Center for Advancing Translational Sciences [NCATS] NIH Chemical Genomics Center [NCGC] U.S. Environmental Protection Agency [EPA] National Institutes of Environmental Health Sciences [NIEHS] National Toxicology Program [NTP] U.S. Food and Drug Administration [FDA] Progesterone receptor (PR), a nuclear hormone receptor, plays an important role in development, metabolic homeostasis and reproduction. It is activated by the steroid hormone progesterone. […]
Inconclusive results are not listed. Calls of active or inactive are those of the source. Calls come from the whole dose curve; as a rule, active = well fitted cell-killing curve with a large enough effect in the repeat runs; inconclusive = weak or mixed curves, or effect the other way; inactive = no such curve, though single readings can be large or run the other way.
Mark one answer only. Choices: YES (active), NO (inactive)

Please review the entries below; each comes with its answer.
Fc1cc(Br)ccc1CBr    NO
COC(=O)C(C)Oc1ccc(Oc2ccc(Cl)cc2Cl)cc1 (stereo not drawn)    NO
COc1ncc(F)c2nc(S(=O)(=O)Nc3c(F)cccc3F)nn12    NO

Record request — test call for "CCN(CC)c1nc(C)cc(OP(=S)(OC)OC)n1"
NO

Quick one: "C[C@]1(O)CC[C@H]2[C@@H]3CCC4=CC(=O)CC[C@]4(C)[C@@]3(F)[C@@H](O)C[C@@]21C"
NO

Quick one: "CC1=NNC(=O)N(/N=C/c2cccnc2)C1"
NO

Quick one: N#CC(CCc1ccc(Cl)cc1)(Cn1cncn1)c1ccccc1 (stereo not drawn)
YES

Quick one: "COC(C)(C)C"
NO
